Measurement Notes: qHTS assay for small molecule agonists of the p53 signaling pathway - cell viability (AID 651633); also: nearly all actives have a fitted effect of over 30% in size
Test Context: p53RE-bla HCT-116 viability, ATP luminescence, 16 h; series mostly up to 83.3 µM
Inconclusive results are not listed. Active and inactive are the calls of the source. Calls follow the shape of the full dose curve.
Bench note: report the call from 1 = active, -1 = inactive

IN: Dear colleague, could you share the recorded outcome for `C[C@@H](NCCCc1cccc(C(F)(F)F)c1)c1cccc2ccccc12` when you have a moment?
OUT: 1

IN: Dear colleague, could you share the recorded outcome for `CCN1/C(=C/C=C/c2sc3ccccc3[n+]2CC)Sc2ccccc21` when you have a moment?
OUT: 1

IN: Dear colleague, could you share the recorded outcome for `Cc1cc2c(cc1C(F)(F)F)N(C(=O)Nc1ccc(Oc3cccnc3C)nc1)CC2` when you have a moment?
OUT: -1

IN: Dear colleague, could you share the recorded outcome for `O=C(Oc1ccccc1)c1ccccc1C(=O)Oc1ccccc1` when you have a moment?
OUT: -1

IN: Dear colleague, could you share the recorded outcome for `Cc1cc(N)c(S(=O)(=O)O)cc1Cl` when you have a moment?
OUT: -1

IN: Dear colleague, could you share the recorded outcome for `CCCN(CCC)c1c([N+](=O)[O-])cc(C(F)(F)F)c(N)c1[N+](=O)[O-]` when you have a moment?
OUT: 1

IN: Dear colleague, could you share the recorded outcome for `COc1ccc(-c2ccc3cc(C(=O)O)ccc3c2)cc1C12CC3CC(CC(C3)C1)C2` when you have a moment?
OUT: 1

IN: Dear colleague, could you share the recorded outcome for `CC(C)CCCCCCCCCCCCCCC(=O)O` when you have a moment?
OUT: 1

IN: Dear colleague, could you share the recorded outcome for `CCN(C(=O)c1cc(C)cc(OC[C@H](C)Nc2ccncc2)c1)C(C)C` when you have a moment?
OUT: -1

IN: Dear colleague, could you share the recorded outcome for `CNCc1cc(F)ccc1Oc1ccc(Cl)c(Cl)c1` when you have a moment?
OUT: -1

IN: Dear colleague, could you share the recorded outcome for `CC(C)n1nc(-c2cc3cc(O)ccc3[nH]2)c2c(N)ncnc21` when you have a moment?
OUT: 1

IN: Dear colleague, could you share the recorded outcome for `CC(C)=CCOc1ccc(/C=C/C(=O)c2ccc(OCC=C(C)C)cc2OCC(=O)O)cc1` when you have a moment?
OUT: 1

IN: Dear colleague, could you share the recorded outcome for `Cc1cccc(S(=O)(=O)O)c1C` when you have a moment?
OUT: -1

IN: Dear colleague, could you share the recorded outcome for `COc1cc(-c2ccc(N=C=O)c(OC)c2)ccc1N=C=O` when you have a moment?
OUT: -1

IN: Dear colleague, could you share the recorded outcome for `O=C(N/N=C/c1ccccc1O)c1ccncc1` when you have a moment?
OUT: 1

IN: Dear colleague, could you share the recorded outcome for `O=C1c2c(O)ccc(Nc3ccc(CCO)cc3)c2C(=O)c2c([N+](=O)[O-])ccc(O)c21` when you have a moment?
OUT: -1

IN: Dear colleague, could you share the recorded outcome for `O=C1CCCCCN1SSN1CCCCCC1=O` when you have a moment?
OUT: -1

IN: Dear colleague, could you share the recorded outcome for `CCCCCCCC/C=C/CCCCCCCC1=NCCN1CCO` when you have a moment?
OUT: 1

IN: Dear colleague, could you share the recorded outcome for `N#CSc1ccc(N)c([N+](=O)[O-])c1` when you have a moment?
OUT: -1

IN: Dear colleague, could you share the recorded outcome for `Oc1cc2ccccc2c2ccccc12` when you have a moment?
OUT: 1

IN: Dear colleague, could you share the recorded outcome for CCC(C)(C)C1CCCCC1OC(C)=O (stereo not given) when you have a moment?
OUT: -1

IN: Dear colleague, could you share the recorded outcome for `CCCCCCCCCCCCCCCS(=O)(=O)Oc1ccccc1` when you have a moment?
OUT: -1

IN: Dear colleague, could you share the recorded outcome for `COc1cccc2c1C(=O)c1c(O)c3c(c(O)c1C2=O)C[C@@](O)(C(=O)CO)C[C@@H]3O[C@H]1C[C@H](N)[C@H](O[C@@H]2CCCCO2)[C@H](C)O1` when you have a moment?
OUT: 1

IN: Dear colleague, could you share the recorded outcome for `Cc1onc(-c2c(Cl)cccc2Cl)c1C(=O)N[C@@H]1C(=O)N2[C@@H]1SC(C)(C)[C@@H]2C(=O)O` when you have a moment?
OUT: -1

IN: Dear colleague, could you share the recorded outcome for `COc1cc(-c2nc(NC(=O)c3cc4cc(C)cc(C)c4n3CC(=O)O)sc2CCC2CCCCC2)c(OC)cc1Cl` when you have a moment?
OUT: 1

IN: Dear colleague, could you share the recorded outcome for `CCc1oc2ccccc2c1C(=O)c1cc(Br)c(O)c(Br)c1` when you have a moment?
OUT: 1

IN: Dear colleague, could you share the recorded outcome for `CN(C)[C@@H]1C(=O)C(C(N)=O)=C(O)[C@@]2(O)C(=O)C3=C(O)c4c(O)ccc(Cl)c4[C@@H](O)[C@H]3C[C@@H]12` when you have a moment?
OUT: -1

IN: Dear colleague, could you share the recorded outcome for `CN(C)C(=O)C1(N2CCCCC2)CCN(CC[C@@]2(c3ccc(Cl)c(Cl)c3)CN(C(=O)c3ccccc3)CCO2)CC1` when you have a moment?
OUT: 1

IN: Dear colleague, could you share the recorded outcome for `CC(C)C(C)(C)C(C)(C)C(C)(C)S` when you have a moment?
OUT: -1

IN: Dear colleague, could you share the recorded outcome for `Oc1c(Cl)cc(Cl)c2cccnc12` when you have a moment?
OUT: 1

IN: Dear colleague, could you share the recorded outcome for `Cc1cc(O)c(C(C)(C)C)cc1Sc1cc(C(C)(C)C)c(O)cc1C` when you have a moment?
OUT: 1

IN: Dear colleague, could you share the recorded outcome for `Oc1ccc(N=Nc2ccccc2)cc1` when you have a moment?
OUT: -1

IN: Dear colleague, could you share the recorded outcome for `[O-][n+]1ccccc1SSc1cccc[n+]1[O-]` when you have a moment?
OUT: -1

IN: Dear colleague, could you share the recorded outcome for `COc1ccc(C(=O)/C(Br)=C\C(=O)O)cc1` when you have a moment?
OUT: -1

IN: Dear colleague, could you share the recorded outcome for `O=C(Nc1cccc([N+](=O)[O-])c1)c1cc2ccccc2cc1O` when you have a moment?
OUT: 1

IN: Dear colleague, could you share the recorded outcome for `CCC(N)(CO)CO` when you have a moment?
OUT: -1

IN: Dear colleague, could you share the recorded outcome for `CC1=C(/C=C/C(C)=C/C=C/C(C)=C/C=O)C(C)(C)CCC1` when you have a moment?
OUT: 1

IN: Dear colleague, could you share the recorded outcome for `C1CCCC1` when you have a moment?
OUT: -1

IN: Dear colleague, could you share the recorded outcome for `CCCC/C=C/CCCCO` when you have a moment?
OUT: -1

IN: Dear colleague, could you share the recorded outcome for `CS(=O)(=O)CCNCc1ccc(-c2ccc3ncnc(Nc4ccc(OCc5cccc(F)c5)c(Cl)c4)c3c2)o1` when you have a moment?
OUT: -1

IN: Dear colleague, could you share the recorded outcome for `COc1ccc(CN2CCN(C(c3ccc(F)cc3)c3ccc(F)cc3)CC2)c(OC)c1OC` when you have a moment?
OUT: 1

IN: Dear colleague, could you share the recorded outcome for `C[n+]1ccn(Cc2ccccc2)c1` when you have a moment?
OUT: -1

IN: Dear colleague, could you share the recorded outcome for Cc1nc(-c2ccc3c(c2)CCN(CCC2CCC(NC(=O)/C=C/c4ccc(F)cc4)CC2)CC3)no1 (stereo not given) when you have a moment?
OUT: -1

IN: Dear colleague, could you share the recorded outcome for `OCCN1CCN(CC/C=C2/c3ccccc3Sc3ccc(C(F)(F)F)cc32)CC1` when you have a moment?
OUT: 1

IN: Dear colleague, could you share the recorded outcome for CCOc1nc2cccc(C(=O)OC(C)OC(=O)OC3CCCCC3)c2n1Cc1ccc(-c2ccccc2-c2nn[nH]n2)cc1 (stereo not given) when you have a moment?
OUT: 1

Data provenance is PubChem BioAssay (Tox21).
